- experimental-system: Muscarinic acetylcholine receptor M4 (Homo sapiens)
- assay-remarks: Antagonist activity at human recombinant muscarinic M4 receptor expressed in CHO cells co-transfected with Gqi5 in presence of EC80 acetylcholine by calcium mobilization assay
- Type: functional, cell-based
- experimental-context: read-out: pIC50 (converted)
readout-name: IC50 (nM)
Give your result in nM as a bare value.

*Q* // query IC50 value for entry `C[C@H]1CCCCN1c1ccc(N2CCN(S(=O)(=O)c3ccc4ncccc4c3)CC2)nn1`
*A* 1120

*Q* // query IC50 value for entry `C[C@H]1CCCCN1c1ccc(N2CCN(S(=O)(=O)c3ccc(Cl)cc3)CC2)nn1`
*A* 2290

*Q* // query IC50 value for entry `Cc1noc(C)c1S(=O)(=O)N1CCN(c2ccc(N3CCCC(C)(C)C3)nn2)CC1`
*A* 110

* * *

- experimental-system: Muscarinic acetylcholine receptor M4 (Homo sapiens)
- assay-remarks: Antagonist activity at human recombinant muscarinic M4 receptor expressed in CHO cells co-transfected with Gqi5 in presence of EC80 acetylcholine by calcium mobilization assay
- Assay type: functional, cell-based
- experimental-context: read-out: IC50
This listing pairs compounds with measured pIC50.
Expect pIC50 as a plain number equal to -log10 of the molar concentration.

Please review the entries below; each comes with its answer.
1) O=S(=O)(c1ccccc1Cl)N1CCN(c2ccc(N3CCCCC3)nn2)CC1 | 5.25
2) O=S(=O)(c1ccc2c(c1)OCO2)N1CCN(c2ccc(N3CCCCCC3)nn2)CC1 | 6.54
3) C[C@H]1CCCN1c1ccc(N2CCN(S(=O)(=O)c3ccc4c(c3)OCO4)CC2)nn1 | 5.56
4) Cc1noc(C)c1S(=O)(=O)N1CCN(c2ccc(N3CCC[C@@H]3C)nn2)CC1 | 5.48

// below: pIC50 requested for another compound
*Q* // query pIC50 value for entry `C[C@H]1CCCCN1c1ccc(N2CCN(S(=O)(=O)c3ccc4c(c3)OCO4)CC2)nc1`
*A* 5.87

* * *

- experimental-system: Muscarinic acetylcholine receptor M4 (Homo sapiens)
- Sequence (P08173 whole entry): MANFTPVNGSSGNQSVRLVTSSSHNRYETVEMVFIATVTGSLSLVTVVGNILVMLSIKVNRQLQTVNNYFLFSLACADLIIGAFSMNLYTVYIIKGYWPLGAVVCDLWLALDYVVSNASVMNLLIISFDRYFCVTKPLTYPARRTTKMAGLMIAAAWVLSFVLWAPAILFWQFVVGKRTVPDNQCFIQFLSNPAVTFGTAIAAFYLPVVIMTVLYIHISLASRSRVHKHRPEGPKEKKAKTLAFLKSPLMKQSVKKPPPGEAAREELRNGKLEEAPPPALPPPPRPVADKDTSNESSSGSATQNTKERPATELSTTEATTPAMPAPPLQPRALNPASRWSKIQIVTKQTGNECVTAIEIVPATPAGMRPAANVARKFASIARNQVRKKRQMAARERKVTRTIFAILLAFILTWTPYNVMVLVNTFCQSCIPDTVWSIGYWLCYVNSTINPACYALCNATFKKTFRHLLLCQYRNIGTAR
- assay-remarks: Displacement of [3H]NMS from human recombinant muscarinic M4 receptor expressed in CHO cell membranes
readout-name: pKi
Expect pKi as a plain number equal to -log10 of the molar concentration.

*Q* // query pKi value for entry `Cc1noc(C)c1S(=O)(=O)N1CCN(c2ccc(N3CCCC(C)(C)C3)nn2)CC1`
*A* 8.11

Sourced from ChEMBL document CHEMBL4052689
